System: Plasmodium falciparum
Test: GSK_TCMDC: Inhibition of Plasmodium falciparum Dd2 in whole red blood cells, using parasite LDH activity as an index of growth. Test compounds present at 2uM
Type: functional
assay endpoint: Inhibition

compound | Inhibition
O=C(C=Cc1ccc(Cl)c(Cl)c1)NCCCCCN1CCCC(CCCNS(=O)(=O)c2ccc(Br)cc2)C1 (centres undefined) | 5%
CC[C@H](C)CNC(=O)c1ccnc(-c2ccc(CN3CCC(N4CCCC4)CC3)cc2)c1.O=C(O)C(F)(F)F | 84%
O=C(/C=C/c1ccc(Cl)cc1)NCCCCCN1CCN(C(=O)Nc2ccc(Cl)c(C(F)(F)F)c2)CC1 | 5%
O=C(/C=C/c1ccc(Cl)c(Cl)c1)NCCCCCN1CCCC(CNC(=O)Nc2ccc(C(F)(F)F)cc2)C1 (centres undefined) | 7%
CCCCCCN1CCCN(Cc2ccc(C(=O)Nc3ccc(CC)cc3)cc2)CC1.O=C(O)C(F)(F)F | 50%

Would you kindly share the measured Inhibition for Cl.O=C(NC1CCN(CC2(c3ccc(Cl)cc3)CCCCC2)CC1)c1cc[nH]n1 ?
96%

Could you tell me which Inhibition is on file for O=C(Nc1ccc(Cl)cc1F)N[C@H]1CCN(CCCCCNC(=O)C2CC2c2ccc(Cl)c(Cl)c2)C1 (some centres undefined) ?
0%

Can you look up the measured Inhibition of Cc1ccc2c(=NN=Cc3ccc(N(C)C)cc3)cc(C)[nH]c2c1 for me?
46%

Bench note: what Inhibition did C=CCC(C)n1ncc2c3c(N)nc(N)nc3ccc21 (centres undefined) show?
95%

Origin of measurements: ChEMBL document CHEMBL1157539
